Listed here: items and their measured AC50.
molecular target: Sodium channel protein type 1 subunit alpha (Rattus norvegicus) (UniProt P04774); test: NVS_IC_rNaCh_site2: NovaScreen (NVS) Ion Channel Assay for rat Sodium Channel, Site 2 (NaCh) (AID 2283322);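 note: hit means loss of radioligand binding signal relative to DMSO so AC50 marks displacement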
Records with an inconclusive call do not appear. Activity calls are given as the source filed them. Rule for the calls: active = hit-call score of the fitted dose curve at least 0.9, where 1 is the maximum; inconclusive = response in the unintended direction; inactive = score below 0.9.

INSERT INTO assay_data (substance_smiles, tgt, result) VALUES
  ('CCC(C)(c1ccc(O)cc1)c1ccc(O)cc1', 'Sodium channel protein type 1 subunit alpha (Rattus norvegicus) (UniProt P04774)', '13.7 µM (active)'),
  ('O=C(N[C@H]1CN2CCC1CC2)c1cc2ccoc2cn1', 'Sodium channel protein type 1 subunit alpha (Rattus norvegicus) (UniProt P04774)', '11.7 µM (active)'),
  ('Oc1ccc(C(c2ccc(O)cc2)(C(F)(F)F)C(F)(F)F)cc1', 'Sodium channel protein type 1 subunit alpha (Rattus norvegicus) (UniProt P04774)', '5.87 µM (active)'),
  ('COc1ccc(O)c(C(C)(C)C)c1', 'Sodium channel protein type 1 subunit alpha (Rattus norvegicus) (UniProt P04774)', '38.2 µM (active)'),
  ('CC(C)(c1ccccc1)c1ccc(O)cc1', 'Sodium channel protein type 1 subunit alpha (Rattus norvegicus) (UniProt P04774)', '31.4 µM (active)');

Now, please, on to the next compound.
Look up AC50 for this compound: CC1=C2C[C@H]3[C@@H](CC=C4C[C@@H](O)CC[C@@]43C)[C@@H]2CC[C@]12O[C@@H]1C[C@H](C)CN[C@H]1[C@H]2C
0.171 µM (active)

###

assay: CCTE_Shafer_MEA_dev_network_spike_number: CCTE's Neural Network Formation Assay for Number of Network Spikes, Shafer Lab (AID 2284048);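 note: synchronized bursts across electrodes counted on days 5 7 9 12 and integrated as AUC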
Active and inactive are the calls of the source. Rule for the calls: active = hit-call score of the fitted dose curve at least 0.9, where 1 is the maximum; inactive = score below 0.9.
Please reply with one of these outcomes: class 1 for active, class 0 for inactive

INSERT INTO results (substance_smiles, label) VALUES
  ('Oc1ccc(C(c2ccc(O)cc2)(C(F)(F)F)C(F)(F)F)cc1', 'class 0'),
  ('O=S(=O)(O)C(F)(F)C(F)(F)C(F)(F)C(F)(F)F', 'class 0'),
  ('O=C(O)C(F)(F)C(F)(F)C(F)(F)C(F)(F)C(F)(F)C(F)(F)C(F)(F)C(F)(F)F', 'class 0'),
  ('ClC(Cl)=C(c1ccc(Cl)cc1)c1ccc(Cl)cc1', 'class 1'),
  ('ClC1=C(Cl)[C@]2(Cl)[C@@H]3[C@H]4C[C@H]([C@@H]5O[C@H]45)[C@@H]3[C@@]1(Cl)C2(Cl)Cl', 'class 0'),
  ('C=CC(N)=O', 'class 0');

Hi, sorry to bother you, what did the test record for O=S(=O)(O)C(F)(F)C(F)(F)C(F)(F)C(F)(F)C(F)(F)C(F)(F)F ?
class 0

Further, for NS(=O)(=O)C(F)(F)C(F)(F)C(F)(F)C(F)(F)C(F)(F)C(F)(F)C(F)(F)C(F)(F)F ?
class 0

Further, for ClC1=C(Cl)[C@]2(Cl)[C@@H]3[C@@H]4C[C@@H]([C@H]5O[C@@H]45)[C@@H]3[C@@]1(Cl)C2(Cl)Cl ?
class 1

###

assay: CEETOX_H295R_CORTISOL: CeeTox H295R High-throughput Steroidogenesis Assay for Cortisol (AID 2283438); details: actives raise or lower the signal;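 note: cortisol secreted into medium quantified by LC-MS/MS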
The source made the active and inactive calls. Rule for the calls: active = hit-call score of the fitted dose curve at least 0.9, where 1 is the maximum; inactive = score below 0.9.
Please reply with one of these outcomes: active, inactive

// known answers, use as guide
INSERT INTO measurements (molecule, label) VALUES
  ('CC1=C2C[C@H]3[C@@H](CC=C4C[C@@H](O)CC[C@@]43C)[C@@H]2CC[C@]12O[C@@H]1C[C@H](C)CN[C@H]1[C@H]2C', 'inactive'),
  ('Cc1cccc(C)c1N', 'inactive'),
  ('CCSC(=O)N(CC)C1CCCCC1', 'inactive'),
  ('ClC1=C(Cl)[C@]2(Cl)[C@@H]3[C@H]4C[C@H]([C@@H]5O[C@H]45)[C@@H]3[C@@]1(Cl)C2(Cl)Cl', 'active');

Hi, sorry to bother you, what did the test record for Clc1ccc(C(c2ccccc2Cl)C(Cl)(Cl)Cl)cc1 (centres undefined) ?
inactive

Further, for CCC(=O)O[C@H]1CC[C@H]2[C@@H]3CCC4=CC(=O)CC[C@]4(C)[C@H]3CC[C@]12C ?
active

Further, for C=CC(N)=O ?
inactive

Further, for NS(=O)(=O)C(F)(F)C(F)(F)C(F)(F)C(F)(F)C(F)(F)C(F)(F)C(F)(F)C(F)(F)F ?
inactive

Further, for c1cc2ccc3cccc4ccc(c1)c2c34 ?
inactive
